tested on: DDR2; design: species or system human, MV4-11 + K-562 + COLO205 + SK-N-BE2 + OVCAR-8; conditions: read-out: apparent Kd; compound concentrations:100 nM and 1000 nM (sheet 'Samples'); n = 1
MEASURED ATTRIBUTE: potency estimated from few doses (nM)

MOLECULE | MEASURED ATTRIBUTE | TEST VALUE
CN1CCN(C(=O)c2ccc(NC(=O)Nc3ccc(N(C)c4ccnc(Nc5ccc(CS(C)(=O)=O)cc5)n4)cc3)cc2)CC1.Cl [GW830263A] | potency estimated from few doses | 1150
Fc1ccc(-c2c(-c3ccncc3)[nH]c3nccnc23)cc1 | potency estimated from few doses | 886
COC(=O)Nc1nc2cc(Oc3ccc(NC(=O)Nc4cc(C(F)(F)F)ccc4F)cn3)ccc2[nH]1.COC(=O)Nc1nc2cc(Oc3ccc(NC(=O)Nc4cc(C(F)(F)F)ccc4F)cn3)ccc2[nH]1.Cl.Cl [GW681170A] | potency estimated from few doses | 1460
COC(=O)Nc1nc2cc(Oc3ccc(NC(=O)Nc4cccc(SC)c4)cc3)ccc2[nH]1.Cl [GW697999A] | potency estimated from few doses | 618
CCN(CC)CCOc1ccc(Nc2ncc3cc(-c4c(Cl)cccc4Cl)c(=O)n(C)c3n2)cc1 | potency estimated from few doses | 319
CCn1cc(-c2ccnc3[nH]c(-c4cccc(CN(C)C)c4)cc23)c(-c2ccc(NC(=O)N(C)C)cc2)n1 | potency estimated from few doses | 1830
CNc1nccc(-c2c(-c3ccc(F)cc3)ncn2C2CCN(C)CC2)n1 | potency estimated from few doses | 625
CN1CCC(n2cnc(-c3ccc(F)cc3)c2-c2ccnc(N)n2)CC1 | potency estimated from few doses | 578
Cc1cn(-c2cc(NC(=O)c3ccc4c(c3)CN(c3cncnc3)C[C@@H]4C)cc(C(F)(F)F)c2)cn1 | potency estimated from few doses | 915
Nc1ncnc2occ(-c3ccc(NC(=O)Nc4cc(C(F)(F)F)ccc4F)cc3)c12 | potency estimated from few doses | 529

----------
system: TGFBR1; parameters: species or system human, MV4-11 + K-562 + COLO205 + SK-N-BE2 + OVCAR-8; settings: read-out: apparent Kd; compound concentrations:100 nM and 1000 nM (sheet 'Samples'); n = 1
potency estimated from few doses: recorded values
MEASURED ATTRIBUTE: potency estimated from few doses (nM)

COMPOUND | MEASURED ATTRIBUTE | TEST VALUE
Cc1cccc(-c2n[nH]cc2-c2ccc3ncccc3n2)n1 [GW786460X] | potency estimated from few doses | 1.39
COc1ccccc1-c1cc(/C=C2\C(=O)Nc3ncc(Br)cc32)cc(Br)c1O [GW442130X] | potency estimated from few doses | 592
Fc1ccc(-c2cc(-c3c[nH]nc3-c3ccccn3)ccn2)cc1 [GW680975X] | potency estimated from few doses | 960
Clc1ccc(-c2cc(-c3c[nH]nc3-c3ccccn3)ccn2)cc1 [GW681251X] | potency estimated from few doses | 856
Cl.NC(=O)c1ccc(-c2nc(-c3ccccn3)c(-c3ccc4c(c3)OCO4)[nH]2)cc1 | potency estimated from few doses | 946
Cc1cccc(-c2cc(-c3c[nH]nc3-c3ccccn3)ccn2)c1 [GW679395X] | potency estimated from few doses | 2190
COc1ccc(-c2cc(-c3c[nH]nc3-c3ccccn3)ccn2)cc1 [GW679410X] | potency estimated from few doses | 170
c1ccc(-c2n[nH]cc2-c2ccnc3ccccc23)nc1 [GW271431X] | potency estimated from few doses | 9.71
FC(F)(F)c1ccc(-c2cc(-c3c[nH]nc3-c3ccccn3)ccn2)cc1 [GW599550X] | potency estimated from few doses | 1520
Cc1cccc(-c2nc(C)cc(Nc3ccncc3)n2)n1 [GSK257997A] | potency estimated from few doses | 75.9
Cl.c1ccc(-c2n[nH]cc2-c2ccnc(-c3ccc(CN4CCOCC4)cc3)c2)nc1 [GW776245A] | potency estimated from few doses | 51.8
CNc1cc(-c2ccc3c(N)n[nH]c3c2)nc(N)n1 [GSK2224810A] | potency estimated from few doses | 1160
CN(C(=O)c1ccc(-c2cc(-c3c[nH]nc3-c3ccccn3)ccn2)cc1)C1CCOCC1 [GW810083X] | potency estimated from few doses | 198
c1ccc(-c2n[nH]cc2-c2ccnc(-c3ccc(CNC4CCOCC4)cc3)c2)nc1 [GW709213X] | potency estimated from few doses | 12.6
c1ccc(-c2n[nH]cc2-c2ccnc(-c3ccc(OCCN4CCOCC4)cc3)c2)nc1 [GW695874X] | potency estimated from few doses | 27.7
Fc1ccc(-c2c(-c3ccncc3)[nH]c3nccnc23)cc1 | potency estimated from few doses | 1950
Cl.ON=C1CCc2cc(-c3nc(C4CCNCC4)[nH]c3-c3ccncc3)ccc21 | potency estimated from few doses | 1170
